System: T. b. brucei (strain 427)
Assay: T. b. brucei proliferation assay (PrestoBlue, 48 h)
Type: cell-based, Trypanosoma brucei brucei
Note to self: use true (1) only for EC50 readings below 3 µM; a reading exactly at 3 µM still gets false (0).

Consider the following illustrative entries.
Structure notation: COc1ccc(Nc2ccnc3cc(-c4cn[nH]c4)ccc23)cc1Cl
Assigned class: true (1)
//
Structure notation: COc1ccc(Nc2ccnc3cc(Nc4nccc(N5CCN(C)CC5)n4)ccc23)cc1Cl
Assigned class: true (1)

Data request: Input "c1cnc(Nc2ccnc3cc(Nc4nccnn4)ccc23)cn1" ; condition: EC50 strictly below 3 µM. Does it hold?
Data returned: false (0)

Data request: Input "COc1ccc(Nc2ccnc3cc(Nc4ccnc(N5CCN(C)CC5)n4)ccc23)cc1Cl" ; condition: EC50 strictly below 3 µM. Does it hold?
Data returned: true (1)

Data request: Input "c1coc(-c2ccc3c(Nc4cnccn4)ccnc3c2)c1" ; condition: EC50 strictly below 3 µM. Does it hold?
Data returned: false (0)

Data request: Input "CN1CCN(S(=O)(=O)c2ccc(-c3ccc4c(Nc5cccnc5)ccnc4c3)cc2)CC1" ; condition: EC50 strictly below 3 µM. Does it hold?
Data returned: false (0)

Data request: Input "CN1CCN(S(=O)(=O)c2ccc(-c3ccc4c(Nc5ncc(Cl)cn5)ccnc4c3)cc2)CC1" ; condition: EC50 strictly below 3 µM. Does it hold?
Data returned: true (1)

Data request: Input "CN1CCN(S(=O)(=O)c2ccc(-c3ccc4c(Nc5ccc6[nH]nnc6c5)ccnc4c3)cc2)CC1" ; condition: EC50 strictly below 3 µM. Does it hold?
Data returned: false (0)

Data request: Input "COc1ccc(Nc2ccnc3cc(-c4cnn(C)c4)ccc23)cc1Cl" ; condition: EC50 strictly below 3 µM. Does it hold?
Data returned: true (1)

Data request: Input "Cn1cc(-c2ccc3c(Nc4cnccn4)ccnc3c2)cn1" ; condition: EC50 strictly below 3 µM. Does it hold?
Data returned: false (0)

Data request: Input "Cc1n[nH]c(C)c1Nc1ccc2c(Nc3cnccn3)ccnc2c1" ; condition: EC50 strictly below 3 µM. Does it hold?
Data returned: false (0)

Data request: Input "CN1CCN(c2ncc(-c3ccc4c(Nc5ccc6[nH]nnc6c5)ccnc4c3)cn2)CC1" ; condition: EC50 strictly below 3 µM. Does it hold?
Data returned: false (0)

Data request: Input "c1cnc(Nc2ccnc3cc(Nc4nccs4)ccc23)cn1" ; condition: EC50 strictly below 3 µM. Does it hold?
Data returned: false (0)

Data request: Input "c1cnc(Nc2ccnc3cc(-c4cn[nH]c4)ccc23)cn1" ; condition: EC50 strictly below 3 µM. Does it hold?
Data returned: true (1)

Data request: Input "Cc1ccc(-c2ccc3c(Nc4cnccn4)ccnc3c2)o1" ; condition: EC50 strictly below 3 µM. Does it hold?
Data returned: false (0)

Data request: Input "CN1CCN(S(=O)(=O)c2ccc(-c3ccc4c(Nc5ccnnc5)ccnc4c3)cc2)CC1" ; condition: EC50 strictly below 3 µM. Does it hold?
Data returned: false (0)

Data request: Input "Cc1cc(Nc2ccc3c(Nc4cnccn4)ccnc3c2)on1" ; condition: EC50 strictly below 3 µM. Does it hold?
Data returned: false (0)

Data request: Input "Cc1cnc(Nc2ccc3c(Nc4cnccn4)ccnc3c2)s1" ; condition: EC50 strictly below 3 µM. Does it hold?
Data returned: true (1)

Data origin, for the record: paper PMC6283615
